molecular target: D-3-phosphoglycerate dehydrogenase (Homo sapiens) (UniProt O43175); assay: Inhibition of N-terminal His6-tagged human liver PHGDH expressed in Escherichia coli Rosetta (DE3)pLysS at 57 uM using 3-phosphoglycerate as substrate after 20 mins in presence of NAD+ by resazurin fluorescence based PSAT1/diaphorase/PSPH coupled enzyme assay
Sequence (O43175 whole entry): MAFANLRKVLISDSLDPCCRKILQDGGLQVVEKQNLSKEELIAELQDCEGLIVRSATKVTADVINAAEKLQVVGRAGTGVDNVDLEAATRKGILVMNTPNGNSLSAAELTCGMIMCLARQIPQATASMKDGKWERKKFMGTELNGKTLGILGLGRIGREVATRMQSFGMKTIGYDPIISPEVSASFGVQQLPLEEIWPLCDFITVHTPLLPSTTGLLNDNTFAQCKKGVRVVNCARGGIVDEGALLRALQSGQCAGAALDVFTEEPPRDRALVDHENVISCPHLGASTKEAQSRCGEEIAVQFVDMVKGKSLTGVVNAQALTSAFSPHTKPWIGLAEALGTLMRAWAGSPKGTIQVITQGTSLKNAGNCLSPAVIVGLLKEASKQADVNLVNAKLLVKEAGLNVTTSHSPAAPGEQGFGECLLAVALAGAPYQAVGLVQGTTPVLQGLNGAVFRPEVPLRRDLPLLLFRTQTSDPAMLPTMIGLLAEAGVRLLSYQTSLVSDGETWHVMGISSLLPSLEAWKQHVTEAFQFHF
Is inhibition at least 90%? Then TRUE. If not, FALSE.

Some solved entries appear below for comparison.
> print(dat)
                                   molecule  qualitative.label
1  COc1ccc(CN2CCN(C(=S)Nc3cc(C)cc(C)n3)CC2)cc1              FALSE
2  FC(F)(F)c1cccc(N2CCN(C(=S)Nc3ccncc3)CC2)c1              FALSE
3  Cc1cc(C)nc(NC(=S)N2CCN(Cc3ccc(C(F)(F)F)cc3)C(C)C2)c1 (stereo not given)               TRUE
4  COc1cccc(N2CCN(C(=S)Nc3cc(C)cc(C)n3)CC2)c1               TRUE
5  Cc1cc(NC(=S)N2CCN(c3cccc(C(F)(F)F)c3)CC2)nc2ccccc12               TRUE

Prompt: Would you say Cc1cc(C)nc(NC(=S)N2CCN(Cc3ccc(C(F)(F)F)cc3)C(c3ccccc3)C2)c1 (stereo not given) shows inhibition at minimum 90%?
Completion: TRUE

Prompt: Would you say "Cc1cc(C)nc(NC(=S)N2CCC(NCc3ccc(C(F)(F)F)cc3)CC2)c1" shows inhibition at minimum 90%?
Completion: TRUE

Prompt: Would you say "Cc1cc(C)nc(NC(=S)N2CCN(Cc3ccccc3F)CC2)c1" shows inhibition at minimum 90%?
Completion: FALSE
